System: MDA-MB-231 (ER−)
method-notes: Growth inhibition assay (MTT, 8 days) in MDA-MB-231 breast cancer cells
Assay type: cell-based
test-settings: Homo sapiens, MDA-MB-231; Table 2; procedures repeated with additional compounds
measurement-label: IC50 (µM)

Some solved entries appear below for comparison.
# molecule, unit-annotation, measured-number
measured = [
    ("Cc1cc(C)c2c(c1)O[C@H](c1cc(O)c(O)c(O)c1)[C@H](OC(=O)c1cc(O)c(O)c(O)c1)C2 [SR 13912]", "µM", 62.1),
    ("COc1cc(OC)c2c(c1)OC(c1cc(O)c(O)c(O)c1)[C@H](OC(=O)c1cc(O)c(O)c(O)c1)C2 (stereo partly shown) [SR 13198]", "µM", 47.9),
]

P = COc1cc([C@H]2Oc3cc(O)cc(O)c3C[C@H]2OC(=O)c2cc(C)c(O)c(C)c2)cc(OC)c1OC [SR 13197]
Q = Cc1cc(C)c2c(c1)O[C@H](c1cc(O)c(O)c(O)c1)[C@H](OC(=O)c1cc(C)c(O)c(C)c1)C2 [SR 13913]
// query Between P and Q , which one shows the larger IC50 value? I would appreciate it if you answered with the label of your choice.
// result P
(P: 55.4 µM, Q: 20.1 µM)
